Values from ChEMBL document CHEMBL5154924

Assay: Half life in Sprague-Dawley rat plasma at 10 mg/kg, ip by LC-MS/MS analysis
Format: ADME, organism-based
Measure: half-life

Chemical Structure: CCCCCCCCCCc1ccc(-c2noc(CCCN)n2)cc1.Cl
Value: > 8 h

---

Experiment: Drug concentration in Sprague-Dawley rat plasma at 10 mg/kg, ip at 24 hrs by LC-MS/MS analysis
Format: ADME, organism-based
Measure: concentration at 24 h (nM)

Chemical Structure: CCCCCCCCCCc1ccc(-c2noc(CCCN)n2)cc1.Cl
Measure: concentration at 24 h
Value: 2000

---

Catalogue of compounds with associated inhibition
Biological target: UniProt:Q91VM4
Sequence (Q91VM4 whole entry): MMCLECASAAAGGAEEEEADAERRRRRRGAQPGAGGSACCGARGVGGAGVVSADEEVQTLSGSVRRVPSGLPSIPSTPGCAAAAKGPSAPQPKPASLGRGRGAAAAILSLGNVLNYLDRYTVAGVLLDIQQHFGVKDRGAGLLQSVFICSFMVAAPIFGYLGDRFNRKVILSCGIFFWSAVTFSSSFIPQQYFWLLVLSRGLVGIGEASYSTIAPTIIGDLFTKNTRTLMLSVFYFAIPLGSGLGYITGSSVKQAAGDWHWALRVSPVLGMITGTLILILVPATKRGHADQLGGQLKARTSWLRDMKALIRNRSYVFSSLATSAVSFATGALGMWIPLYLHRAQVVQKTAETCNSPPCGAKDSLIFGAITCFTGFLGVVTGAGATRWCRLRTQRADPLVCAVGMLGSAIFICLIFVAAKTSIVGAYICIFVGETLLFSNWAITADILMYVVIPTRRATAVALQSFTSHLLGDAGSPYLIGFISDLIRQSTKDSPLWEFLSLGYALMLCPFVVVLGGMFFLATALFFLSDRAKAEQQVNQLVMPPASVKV
Assay: Inhibition of mouse Spns2 transfected in human HeLa cells by measuring S1P release at 2 uM by LC/MS analysis relative to control
Assay type: cell-based
Measure: inhibition (%)

Compound: CCCCCCCCCCc1ccc(-c2nnc(CCCN)o2)cc1
Measured On: UniProt:Q91VM4
Measure: inhibition
Value: 59
//
Compound: CCCCCCCC(=O)NCc1ccc(-c2noc(CCCN)n2)cc1
Measured On: UniProt:Q91VM4
Measure: inhibition
Value: 11
//
Compound: CCCCCCCCCCc1ccc(-c2noc([C@H]3CCCN3)n2)cc1
Measured On: UniProt:Q91VM4
Measure: inhibition
Value: 12
//
Compound: CCCCCCCCCCc1ccc(-c2noc([C@@H](N)CCCN)n2)cc1
Measured On: UniProt:Q91VM4
Measure: inhibition
Value: 40
//
Compound: CCCCCCCCCCc1ccc(-c2noc([C@@H]3CCNC3)n2)cc1
Measured On: UniProt:Q91VM4
Measure: inhibition
Value: 62
//
Compound: CCCCCCCCCCc1ccc(-c2noc(CC(O)CN3CCCCC3)n2)cc1 (stereo not drawn)
Measured On: UniProt:Q91VM4
Measure: inhibition
Value: 2
//
Compound: CCCCCCCCCCc1ccc(-c2noc(CC(O)CN(C)C)n2)cc1 (stereo not drawn)
Measured On: UniProt:Q91VM4
Measure: inhibition
Value: 61
//
Compound: CCCCCCCCCCc1ccc(-c2noc([C@H](N)CCCCN)n2)cc1
Measured On: UniProt:Q91VM4
Measure: inhibition
Value: 50
//
Compound: CCCCCCCCCCc1ccc(-c2noc(CC(O)CNCC)n2)cc1 (stereo not drawn)
Measured On: UniProt:Q91VM4
Measure: inhibition
Value: 5
//
Compound: CCCCCCCCCCc1ccc(-c2cn(C)c(CCCN)n2)cc1
Measured On: UniProt:Q91VM4
Measure: inhibition
Value: 51
//
Compound: CCCCCCCCCOc1ccc(-c2noc(CCCN)n2)cc1C(F)(F)F
Measured On: UniProt:Q91VM4
Measure: inhibition
Value: 24
//
Compound: CCCCCCCCCCc1ccc(-c2noc(C3CNC3)n2)cc1
Measured On: UniProt:Q91VM4
Measure: inhibition
Value: 65
//
Compound: CCCCCCCCCCc1ccc(-c2noc(C[C@H](C)N)n2)cc1
Measured On: UniProt:Q91VM4
Measure: inhibition
Value: 44
//
Compound: CCCCCCCCCCc1ccc(-c2noc(C(Cl)CCN)n2)cc1 (stereo not drawn)
Measured On: UniProt:Q91VM4
Measure: inhibition
Value: 5
//
Compound: CCCCCCCCCCc1ccc(-c2noc([C@H](CCCCN)NC(C)=O)n2)cc1
Measured On: UniProt:Q91VM4
Measure: inhibition
Value: 40
//
Compound: CCCCCCCCCCc1ccc(-c2noc(CCCN3CCCC3)n2)cc1
Measured On: UniProt:Q91VM4
Measure: inhibition
Value: 3
//
Compound: CCCCCCCCCCc1ccc(-c2noc([C@H]3CCC[C@@H](N)C3)n2)cc1
Measured On: UniProt:Q91VM4
Measure: inhibition
Value: 29
//
Compound: CCCCCCCCCCc1ccc(-c2coc(CCCN)n2)cc1
Measured On: UniProt:Q91VM4
Measure: inhibition
Value: 49
